Data origin: ChEMBL document CHEMBL5550090

biological target: Glycogen synthase kinase-3 beta (Homo sapiens); test: Inhibition of human recombinant GSK-3 beta expressed in baculovirus-infected Sf9 cells assessed as enzyme residual activity using YRRAAVPPSPSLSRHSSPHQSpEDEEE as substrate at 1 uM incubated for 30 mins in presence of ATP by ADP-Glo kinase assay
Measured Activity, listed per entry.

# Structure Smiles String, Activity
records = [
    ("Brc1c[nH]c2cc3cnccc3cc12", "89%"),
    ("c1cc(-c2c[nH]c3cc4cnccc4cc23)ccn1", "92%"),
    ("Nc1nccc(-c2c[nH]c3cc4cnccc4cc23)n1", "76%"),
    ("CCN(CC)Cc1c[nH]c2cc3cnccc3cc12", "79%"),
    ("Clc1c[nH]c2cc3cnccc3cc12", "92%"),
    ("c1cc2cc3c(-c4cncnc4)c[nH]c3cc2cn1", "68%"),
    ("c1cc2cc3cc[nH]c3cc2cn1", "100%"),
]

###

test system: HBL-100; experiment: cells; settings: Homo sapiens, HBL-100, 48 h
Description: Antiproliferative activity against human HBL-100 cells assessed as reduction in cell viability incubated for 48 hrs by MTS assay
Quantity Name: EC50 (µM)

# Structure Smiles String, Unit Text, Value Prefix, Numeric Readout
measured = [
    ("CCn1ncc2cc3cnccc3c(N)c21", "µM", "=", 7.3),
    ("Brc1c[nH]c2cc3cnccc3cc12", "µM", ">", 50),
    ("c1cc(-c2c[nH]c3cc4cnccc4cc23)ccn1", "µM", "=", 24.1),
    ("Ic1c[nH]c2cc3cnccc3cc12", "µM", ">", 50),
]

###

biological target: Serine/threonine-protein kinase haspin (Homo sapiens, UniProt Q8TF76); test: Inhibition of recombinant human Haspin kinase domain (470 to 798 residues) expressed in bacteria using histone H3 (1 to 21) peptide as substrate incubated for 30 mins in presence of ATP by ADP-Glo kinase assay
Sequence (Q8TF76 whole entry, the tested form may be a part): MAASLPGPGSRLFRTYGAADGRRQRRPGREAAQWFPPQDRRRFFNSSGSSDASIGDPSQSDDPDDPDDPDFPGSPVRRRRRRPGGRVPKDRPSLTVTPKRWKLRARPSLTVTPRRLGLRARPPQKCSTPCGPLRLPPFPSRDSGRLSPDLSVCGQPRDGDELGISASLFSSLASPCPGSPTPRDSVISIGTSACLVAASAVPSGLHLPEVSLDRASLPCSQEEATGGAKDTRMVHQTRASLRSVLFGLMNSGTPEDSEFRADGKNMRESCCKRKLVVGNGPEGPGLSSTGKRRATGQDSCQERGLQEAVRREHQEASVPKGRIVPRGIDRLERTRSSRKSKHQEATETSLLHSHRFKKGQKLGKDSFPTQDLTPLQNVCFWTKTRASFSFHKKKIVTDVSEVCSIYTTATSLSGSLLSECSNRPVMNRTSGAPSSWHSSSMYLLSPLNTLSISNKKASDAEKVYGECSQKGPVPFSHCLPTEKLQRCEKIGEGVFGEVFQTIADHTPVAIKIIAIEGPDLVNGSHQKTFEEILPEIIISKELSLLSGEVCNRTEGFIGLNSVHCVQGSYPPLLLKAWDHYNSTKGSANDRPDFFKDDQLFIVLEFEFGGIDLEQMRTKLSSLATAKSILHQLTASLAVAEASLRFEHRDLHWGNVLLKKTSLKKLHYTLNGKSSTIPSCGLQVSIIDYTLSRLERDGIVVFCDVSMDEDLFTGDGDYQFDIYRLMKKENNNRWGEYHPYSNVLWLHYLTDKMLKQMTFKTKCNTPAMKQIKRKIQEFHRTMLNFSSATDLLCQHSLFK
Quantity Name: log10 of IC50 (log10 of the value in nM)

# Structure Smiles String, log10 of IC50
measured = [
    ("Nc1nccc(-c2c[nH]c3cc4cnccc4cc23)n1", 2.09),
    ("OCc1c[nH]c2cc3cnccc3cc12", 2.91),
    ("N#Cc1c[nH]c2cc3cnccc3cc12", 1.88),
    ("Cn1cc(I)c2cc3ccncc3cc21", 2.39),
    ("Ic1c[nH]c2cc3cnccc3cc12", 2.06),
    ("O=Cc1c[nH]c2cc3cnccc3cc12", 2.20),
    ("ON=Cc1c[nH]c2cc3cnccc3cc12", 2.11),
    ("Brc1c[nH]c2cc3cnccc3cc12", 2.18),
    ("c1cc(-c2c[nH]c3cc4cnccc4cc23)ccn1", 1.88),
    ("c1cc2cc3c(-c4cncnc4)c[nH]c3cc2cn1", 2.40),
    ("c1ccc(-c2c[nH]c3cc4cnccc4cc23)cc1", 2.68),
    ("CC(=O)c1c[nH]c2cc3cnccc3cc12", 2.20),
]

###

molecular target: Cyclin-dependent kinase 5/CDK5 activator 1 (Homo sapiens) (UniProt Q00535+Q15078); test: Inhibition of human recombinant CDK5/p25 expressed in bacteria assessed as enzyme residual activity using histone H1 as substrate at 10 uM incubated for 30 mins in presence of ATP by ADP-Glo kinase assay
Sequence (Q00535 whole entry): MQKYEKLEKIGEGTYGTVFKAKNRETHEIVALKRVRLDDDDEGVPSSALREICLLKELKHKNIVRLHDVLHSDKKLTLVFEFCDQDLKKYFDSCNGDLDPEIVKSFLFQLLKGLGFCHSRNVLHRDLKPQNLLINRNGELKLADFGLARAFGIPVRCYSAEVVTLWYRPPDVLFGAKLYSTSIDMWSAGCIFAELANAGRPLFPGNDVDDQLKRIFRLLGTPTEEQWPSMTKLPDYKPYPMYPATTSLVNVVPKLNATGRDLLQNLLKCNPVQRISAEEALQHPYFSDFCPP
Sequence (Q15078 99-307 partner limits assumed): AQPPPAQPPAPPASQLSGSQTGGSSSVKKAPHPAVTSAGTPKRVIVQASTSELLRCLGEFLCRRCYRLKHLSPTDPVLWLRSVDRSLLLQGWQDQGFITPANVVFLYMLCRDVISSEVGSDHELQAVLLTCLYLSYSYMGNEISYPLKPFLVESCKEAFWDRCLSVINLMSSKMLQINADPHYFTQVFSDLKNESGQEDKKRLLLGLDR
# strict inequality: Activity < 40% yields criterion met, everything else yields criterion not met

# Structure Smiles String, Class
measured = [
    ("Clc1c[nH]c2cc3cnccc3cc12", "criterion not met"),
    ("c1cc(-c2c[nH]c3cc4cnccc4cc23)ccn1", "criterion met"),
    ("CC(=O)c1c[nH]c2cc3cnccc3cc12", "criterion met"),
    ("Nc1nccc(-c2c[nH]c3cc4cnccc4cc23)n1", "criterion met"),
    ("CNCc1c[nH]c2cc3cnccc3cc12", "criterion not met"),
    ("Cn1ccc2cc3ccncc3cc21", "criterion met"),
    ("CCNCc1c[nH]c2cc3cnccc3cc12", "criterion not met"),
    ("OCc1c[nH]c2cc3cnccc3cc12", "criterion not met"),
    ("NCc1c[nH]c2cc3cnccc3cc12", "criterion not met"),
]
